experiment: in vitro; details: human
Attribute: CC50
MEASURE: CC50 (µM)

In [3]: df
Out[3]:
                                    compound  quantity_unit  inequality_operator  data_value
 0  CCCCn1c(=O)c2ccc(C(CCO)CCO)cc2c2cc(C(O)(C(F)(F)F)C(F)(F)F)ccc21 [NR-101]             µM                    >          20
 1  CCCCn1c(=O)c2cc(NC(=O)NCCO)ccc2c2cc(C(O)(C(F)(F)F)C(F)(F)F)ccc21 [NR-72]             µM                    =           9
 2  CCCCn1c(=O)c2ccc(N)cc2c2cc(C(O)(C(F)(F)F)C(F)(F)F)ccc21 [NR-31-5]             µM                    >          20
 3  CCCCn1c(=O)c2ccc(NC(CO)CO)cc2c2cc(C(O)(C(F)(F)F)C(F)(F)F)ccc21 [NR-89]             µM                    >          20
 4  CCCCn1c(=O)c2ccc(NCC(N)=O)cc2c2cc(C(O)(C(F)(F)F)C(F)(F)F)ccc21 [NR-96]             µM                    >          20
 5  CCCCn1c(=O)c2cc(NC=O)ccc2c2cc(C(O)(C(F)(F)F)C(F)(F)F)ccc21 [NR-86]             µM                    =        16.7
 6  CCCCn1c(=O)c2cc(NC(=O)[C@@H]3C[C@@H](O)CN3)ccc2c2cc(C(O)(C(F)(F)F)C(F)(F)F)ccc21 [NR-52]             µM                    =        18.1
 7  CCCCn1c(=O)c2ccc(NC(=O)C(C)N)c(F)c2c2cc(C(O)(C(F)(F)F)C(F)(F)F)ccc21 (stereo not shown) [NR-44]             µM                    =        10.3
 8  CCCCn1c(=O)c2ccc(NCCCCCO)cc2c2cc(C(O)(C(F)(F)F)C(F)(F)F)ccc21 [NR-100]             µM                    >          20
 9  CCCCn1c(=O)c2ccc(NC(=O)[C@H](N)CO)cc2c2cc(C(O)(C(F)(F)F)C(F)(F)F)ccc21 [NR-47]             µM                    =        11.7
10  CCCCn1c(=O)c2ccc(NC(=O)[C@H]3CC(O)CN3)cc2c2cc(C(O)(C(F)(F)F)C(F)(F)F)ccc21 (stereo partly shown) [NR-30]             µM                    =        13.6
11  CCCCn1c(=O)c2ccc(NC(=O)C(C)N)cc2c2cc(C(O)(C(F)(F)F)C(F)(F)F)ccc21 (stereo not shown) [NR-28]             µM                    =        11.8
12  CCCCn1c(=O)c2cc(F)c(N)cc2c2cc(C(O)(C(F)(F)F)C(F)(F)F)ccc21 [NR-54]             µM                    =        27.2
13  CCCCn1c(=O)c2ccc(NC(=O)CCO)cc2c2cc(C(O)(C(F)(F)F)C(F)(F)F)ccc21 [NR-38]             µM                    >          20
14  CCCCn1c(=O)c2ccc(NCCC)cc2c2cc(C(O)(C(F)(F)F)C(F)(F)F)ccc21 [NR-103]             µM                    >          20
15  CCCCn1c(=O)c2ccc(NCCCO)cc2c2cc(C(O)(C(F)(F)F)C(F)(F)F)ccc21 [NR-98]             µM                    >          20
16  CCCCn1c(=O)c2ccc(NCCN(C)C)cc2c2cc(C(O)(C(F)(F)F)C(F)(F)F)ccc21 [NR-105]             µM                    =         7.4
17  CCCCn1c(=O)c2ccc(NCCCCO)cc2c2cc(C(O)(C(F)(F)F)C(F)(F)F)ccc21 [NR-99]             µM                    >          20
18  CCCCn1c(=O)c2ccc(NCCO)cc2c2cc(C(O)(C(F)(F)F)C(F)(F)F)ccc21 [NR-31]             µM                    >          20
19  CC(C)Cn1c(=O)c2ccc(NCCO)cc2c2cc(C(O)(C(F)(F)F)C(F)(F)F)ccc21 [NR-91]             µM                    >          20
20  CCCCn1c(=O)c2ccc(NC(C)=O)cc2c2cc(C(O)(C(F)(F)F)C(F)(F)F)ccc21 [TK-04]             µM                    =        7.13
21  CCCCn1c(=O)c2ccc(NCCN)cc2c2cc(C(O)(C(F)(F)F)C(F)(F)F)ccc21 [NR-102]             µM                    =         5.5
22  CCCn1c(=O)c2ccc(NCCO)cc2c2cc(C(O)(C(F)(F)F)C(F)(F)F)ccc21 [NR-92]             µM                    >          20
23  CCCCn1c(=O)c2cc(F)c(NC3CCOC3)cc2c2cc(C(O)(C(F)(F)F)C(F)(F)F)ccc21 (stereo not shown) [NR-78]             µM                    =        17.8
24  CCCCn1c(=O)c2ccc(N)c(SC)c2c2cc(C(O)(C(F)(F)F)C(F)(F)F)ccc21 [NR-87]             µM                    =        18.2
25  CCCCn1c(=O)c2cc(F)c(NCc3ccc(O)cc3)cc2c2cc(C(O)(C(F)(F)F)C(F)(F)F)ccc21 [NR-55]             µM                    >          80
26  CCCCn1c(=O)c2ccc(NC(=O)CO)cc2c2cc(C(O)(C(F)(F)F)C(F)(F)F)ccc21 [NR-17]             µM                    >          20
27  CCCCn1c(=O)c2ccc(NCC(O)CO)cc2c2cc(C(O)(C(F)(F)F)C(F)(F)F)ccc21 (stereo not shown) [NR-90]             µM                    >          20
28  CCCCn1c(=O)c2cc(NC(=O)C(C)N)ccc2c2cc(C(O)(C(F)(F)F)C(F)(F)F)ccc21 (stereo not shown) [NR-50]             µM                    =          12
29  CCCCn1c(=O)c2cc(F)c(NCCO)cc2c2cc(C(O)(C(F)(F)F)C(F)(F)F)ccc21 [NR-56]             µM                    =        29.5
30  CCCCn1c(=O)c2ccc(NC(=O)C(C)C)cc2c2cc(C(O)(C(F)(F)F)C(F)(F)F)ccc21 [NR-16]             µM                    =        15.8

---

test system: SARS-CoV-2 (WK-521); experiment: microbe, parasite or virus in culture; type: cell-based; conditions: Severe acute respiratory syndrome coronavirus 2, HEK-293T, 72 h; read-out: IC50 (concentration of agent which reduces viral production and replication by 50%)
MEASURE: IC50

In [3]: df
Out[3]:
                                   compound  data_value
0  CCCCn1c(=O)c2cc(F)c(NCCO)cc2c2cc(C(O)(C(F)(F)F)C(F)(F)F)ccc21     0.29 µM
1  CCCCn1c(=O)c2ccc(NCCCCCO)cc2c2cc(C(O)(C(F)(F)F)C(F)(F)F)ccc21     0.59 µM
2  CCCCn1c(=O)c2cc(F)c(NCc3ccc(O)cc3)cc2c2cc(C(O)(C(F)(F)F)C(F)(F)F)ccc21     0.15 µM
3  CCCCn1c(=O)c2ccc(NC(CO)CO)cc2c2cc(C(O)(C(F)(F)F)C(F)(F)F)ccc21     0.35 µM
4  CCCCn1c(=O)c2cc(NC(=O)C(C)N)ccc2c2cc(C(O)(C(F)(F)F)C(F)(F)F)ccc21 (stereo not shown)     0.65 µM
5  CCCCn1c(=O)c2ccc(NC(=O)C(C)N)c(F)c2c2cc(C(O)(C(F)(F)F)C(F)(F)F)ccc21 (stereo not shown)     0.38 µM
6  CCCCn1c(=O)c2ccc(NCCCCO)cc2c2cc(C(O)(C(F)(F)F)C(F)(F)F)ccc21      1.3 µM
7  CCCCn1c(=O)c2cc(NC(=O)[C@@H]3C[C@@H](O)CN3)ccc2c2cc(C(O)(C(F)(F)F)C(F)(F)F)ccc21     0.14 µM
8  CCCCn1c(=O)c2ccc(NC(=O)C(C)C)cc2c2cc(C(O)(C(F)(F)F)C(F)(F)F)ccc21    0.575 µM
9  CCCCn1c(=O)c2ccc(NCC(N)=O)cc2c2cc(C(O)(C(F)(F)F)C(F)(F)F)ccc21     0.68 µM
